Test system: A431 cells
Method Summary: ELISA cell activity, EGF-stimulated A431 cells
Type: cell-based
Test Settings: Homo sapiens, A-431; ELISA, compound 1 h then EGF 45 minutes; read-out: A431 cells (IC50/nM)
Here, each record is paired with measured IC50 data.
Recorded Endpoint: IC50 (nM)

- Line Notation: "C=CC(=O)Nc1cc(Nc2ncc(OC)c(-c3cnc4c(ccn4C)c3)n2)c(OC)cc1N(C)CCN(C)C"
  Obs Value: 113
- Line Notation: "C=CC(=O)Nc1cc(Nc2nccc(-c3cnc4c(cnn4C)c3)n2)c(OC)cc1N(C)CCN(C)C"
  Obs Value: 194
- Line Notation: "C=CC(=O)Nc1cc(Nc2ncc(Cl)c(-c3c(C)nn(C)c3C)n2)c(OC)cc1N(C)CCN(C)C"
  Obs Value: 3280
- Line Notation: "C=CC(=O)Nc1cc(Nc2ncc(Cl)c(-c3cn(C)nc3C)n2)c(OC)cc1N(C)CCN(C)C"
  Obs Value: 372
- Line Notation: "C=CC(=O)Nc1cc(Nc2ncc(C(F)(F)F)c(-c3cnc4c(ccn4C)c3)n2)c(OC)cc1N(C)CCN(C)C"
  Obs Value: 1230
- Line Notation: "C=CC(=O)Nc1cc(Nc2ncc(Cl)c(-c3cnn(C)c3)n2)c(OC)cc1N1CCC(N(C)C)CC1"
  Obs Value: 4790
- Line Notation: "C=CC(=O)Nc1cc(Nc2ncc(F)c(-c3cnc4c(ccn4C)c3)n2)c(OC)cc1N(C)CCN(C)C"
  Obs Value: 167
- Line Notation: "C=CC(=O)Nc1cc(Nc2nccc(-c3cnn(C)c3)n2)c(OC)cc1N1CCC(N(C)C)CC1"
  Obs Value: 3080

###

Tested System: EGFR WT kinase (Homo sapiens (Human))
Method Summary: Wild type EGFR kinase inhibition test (z-lyte)
Format: biochemical
Test Settings: 10 μM ATP
Here, each record is paired with measured IC50 data.
Recorded Endpoint: IC50 (nM)

- Line Notation: "C=CC(=O)Nc1cc(Nc2nccc(-c3cnc4c(cnn4C)c3)n2)c(OC)cc1N1CCN(C)CC1"
  Obs Value: 105
- Line Notation: "C=CC(=O)Nc1cc(Nc2ncc(F)c(-c3cnc4c(ccn4C)c3)n2)c(OC)cc1N(C)CCN(C)C"
  Obs Value: 4
- Line Notation: "C=CC(=O)Nc1cc(Nc2ncc(F)c(-c3cnc4c(ccn4C)c3)n2)c(OC)cc1OCCN(C)C"
  Obs Value: 6
- Line Notation: "C=CC(=O)Nc1cc(Nc2ncc(C(=O)OC)c(-c3cnc4c(ccn4C)c3)n2)c(OC)cc1N(C)CCN(C)C"
  Obs Value: 4

###

Here, each record is paired with measured clearance data.
Method Summary: In vivo pharmacokinetic test in rats
Test Settings: male, SD, rat, plasma, IV 1 mg/kg, read-out: Clearance CL

- Line Notation: "C=CC(=O)Nc1cc(Nc2ncc(Cl)c(-c3cnn(C)c3)n2)c(OC)cc1N1CCC(N(C)C)CC1"
  Units Of Measure: "mL/min/kg"
  clearance: 43.5
- Line Notation: "C=CC(=O)Nc1cc(Nc2ncc(F)c(-c3cnn(C)c3)n2)c(OC)cc1N1CCC(N(C)C)CC1"
  Units Of Measure: "mL/min/kg"
  clearance: 43.9

###

Tested System: UniProt P00533
Method Summary: Wild type EGFR kinase inhibition test (z-lyte)
Assay type: biochemical
Test Settings: 10 μM ATP
Just a reminder that ties go to false: only IC50 strictly below 30 nM counts as true.

- Compound: "C=CC(=O)Nc1cc(Nc2ncc(Cl)c(-c3cnc4c(ccn4C)c3)n2)c(OC)cc1N(C)CCN(C)CC [Compound Z-109]"
  Class Label: "true"
- Compound: "C=CC(=O)Nc1cc(Nc2ncc(Cl)c(-c3ccc4c(ccn4C)c3)n2)c(OC)cc1N(C)CCN(C)C [Compound Z-88]"
  Class Label: "true"
- Compound: "C=CC(=O)Nc1cc(Nc2nccc(-c3cnc4c(ccn4C)c3)n2)c(OC)cc1N(C)CCNC [Compound Z-106]"
  Class Label: "true"
- Compound: "C=CC(=O)Nc1cc(Nc2ncc(Cl)c(-c3ccn(C)c3)n2)c(OC)cc1N(C)CCN(C)C [Compound Z-99]"
  Class Label: "false"
- Compound: "C=CC(=O)Nc1cc(Nc2ncc(Cl)c(-c3cnc4c(ccn4C)c3)n2)c(OC)cc1N(C)CCNC [Compound Z-116]"
  Class Label: "false"
- Compound: "C=CC(=O)Nc1cc(Nc2nccc(-c3cnc4c(ccn4C)c3)n2)c(OC)cc1N1CCN(C)CC1 [Compound Z-26]"
  Class Label: "false"
- Compound: "C=CC(=O)Nc1cc(Nc2ncc(Cl)c(-c3cnn(C4CCNCC4)c3)n2)c(OC)cc1N1CCC(N(C)C)CC1 [Compound Z-96]"
  Class Label: "false"
- Compound: "C=CC(=O)Nc1cc(Nc2nccc(-c3cnc4c(ccn4C)c3)n2)c(OC)cc1N(C)CCN(C)CC [Compound Z-105]"
  Class Label: "true"
- Compound: "C=CC(=O)Nc1cc(Nc2ncc(Cl)c(-c3c(C)nn(C)c3C)n2)c(OC)cc1N(C)CCN(C)C [Compound Z-91]"
  Class Label: "false"
- Compound: "C=CC(=O)Nc1cc(Nc2ncc(F)c(-c3cnc4c(c3)c(Cl)cn4C)n2)c(OC)cc1N(C)CCN(C)C [Compound Z-123]"
  Class Label: "true"
- Compound: "C=CC(=O)Nc1cc(Nc2nccc(-c3cnc4c(ccn4C)c3)n2)c(OC)cc1N1CC(N(C)C)C1 [Compound Z-27]"
  Class Label: "true"
- Compound: "C=CC(=O)Nc1cc(Nc2nccc(-c3cnc4c(ccn4C)c3)n2)c(OC)cc1N(C)CCN(CC)CC [Compound Z-107]"
  Class Label: "true"
- Compound: "C=CC(=O)Nc1cc(Nc2ncc(C(F)(F)F)c(-c3cnc4c(ccn4C)c3)n2)c(OC)cc1N(C)CCN(C)C [Compound Z-22]"
  Class Label: "false"
- Compound: "C=CC(=O)Nc1cc(Nc2nccc(-c3cnc4c(ccn4C)c3)n2)c(OC)cc1N(C)CCN(C)C(C)C [Compound Z-115]"
  Class Label: "true"

###

Tested on: A431 cells
Method Summary: ELISA cell activity, EGF-stimulated A431 cells;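 also: Serum-starved A431 cells pretreated with compound for 1 h, then stimulated with EGF for 45 min, lysates read by ELISA (OD450 minus OD570), EGF-only wells as control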
Format: cell-based
Test Settings: Homo sapiens, A-431; ELISA, compound 1 h then EGF 45 minutes; read-out: A431 cells (IC50/nM)
Here, each record is paired with measured IC50 data.

- Line Notation: "C=CC(=O)Nc1cc(Nc2ncc(F)c(-c3cnn(C)c3)n2)c(OC)cc1N1CCC(N(C)C)CC1"
  IC50: "1690 nM"
- Line Notation: "C=CC(=O)Nc1cc(Nc2ncc(Cl)c(-c3cnn(C)c3)n2)c(OC)cc1N1CCN(C)CC1"
  IC50: "8430 nM"
- Line Notation: "C=CC(=O)Nc1cc(Nc2nccc(-c3cnc4c(ccn4C)c3)n2)c(OC)cc1N(C)CCN(C)C"
  IC50: "153 nM"
- Line Notation: "C=CC(=O)Nc1cc(Nc2ncc(Cl)c(-c3cnn(C)c3)n2)c(OC)cc1N(C)CCN(C)C"
  IC50: "675 nM"

###

Method Summary: In vivo pharmacokinetic test in mice
Test Settings: male, CD1, mouse, plasma, route not given (IV 1 mg/kg, oral gavage 5 mg/kg), read-out: Area under the curve AUC

- Line Notation: "C=CC(=O)Nc1cc(Nc2ncc(F)c(-c3cnn(C)c3)n2)c(OC)cc1N1CCC(N(C)C)CC1"
  Units Of Measure: "ng·h/mL"
  AUC: 657
- Line Notation: "C=CC(=O)Nc1cc(Nc2ncc(Cl)c(-c3cnn(C)c3)n2)c(OC)cc1N1CCC(N(C)C)CC1"
  Units Of Measure: "ng·h/mL"
  AUC: 1040

###

Tested System: EGFR WT kinase (Homo sapiens (Human), UniProt P00533)
Sequence (P00533 25-1210): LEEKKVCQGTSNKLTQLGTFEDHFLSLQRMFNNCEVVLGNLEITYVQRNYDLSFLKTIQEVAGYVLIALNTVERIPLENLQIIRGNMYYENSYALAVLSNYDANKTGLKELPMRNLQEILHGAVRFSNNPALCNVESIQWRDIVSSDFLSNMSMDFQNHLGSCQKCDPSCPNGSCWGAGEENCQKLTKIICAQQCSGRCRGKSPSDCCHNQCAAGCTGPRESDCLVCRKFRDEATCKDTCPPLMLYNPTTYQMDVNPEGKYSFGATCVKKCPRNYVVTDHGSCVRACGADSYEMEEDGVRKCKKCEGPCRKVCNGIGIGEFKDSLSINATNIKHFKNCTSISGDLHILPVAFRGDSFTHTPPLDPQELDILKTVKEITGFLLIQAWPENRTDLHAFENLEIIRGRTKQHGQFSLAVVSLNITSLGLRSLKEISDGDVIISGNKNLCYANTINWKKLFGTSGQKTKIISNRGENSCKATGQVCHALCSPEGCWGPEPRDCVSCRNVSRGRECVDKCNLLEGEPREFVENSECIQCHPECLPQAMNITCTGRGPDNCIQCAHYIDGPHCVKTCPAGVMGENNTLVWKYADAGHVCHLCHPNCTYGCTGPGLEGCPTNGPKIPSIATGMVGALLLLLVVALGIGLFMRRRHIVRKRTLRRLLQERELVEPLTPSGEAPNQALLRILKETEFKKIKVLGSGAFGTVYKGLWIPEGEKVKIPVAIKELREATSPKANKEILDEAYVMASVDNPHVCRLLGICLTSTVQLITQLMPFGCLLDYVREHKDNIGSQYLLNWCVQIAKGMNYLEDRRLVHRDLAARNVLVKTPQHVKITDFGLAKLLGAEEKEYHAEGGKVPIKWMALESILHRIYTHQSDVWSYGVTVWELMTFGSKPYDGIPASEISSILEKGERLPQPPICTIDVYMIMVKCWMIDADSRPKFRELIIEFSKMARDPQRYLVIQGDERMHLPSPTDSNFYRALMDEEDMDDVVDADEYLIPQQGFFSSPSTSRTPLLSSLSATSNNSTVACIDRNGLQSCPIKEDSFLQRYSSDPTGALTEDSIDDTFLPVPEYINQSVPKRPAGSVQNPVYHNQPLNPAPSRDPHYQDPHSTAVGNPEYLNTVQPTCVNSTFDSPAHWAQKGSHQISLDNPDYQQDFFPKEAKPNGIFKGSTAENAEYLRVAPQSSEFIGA
Method Summary: Wild type EGFR kinase inhibition test (z-lyte)
Format: biochemical
Test Settings: 10 μM ATP
Just a reminder that ties go to 0 (no): only IC50 strictly below 20 nM counts as 1 (yes).

- Line Notation: "C=CC(=O)Nc1cc(Nc2ncc(F)c(-c3cnc4c(c3)c(Cl)cn4C)n2)c(OC)cc1N1CCC(N(C)C)CC1"
  Class Label: "0 (no)"
- Line Notation: "C=CC(=O)Nc1cc(Nc2nccc(-c3cnc4c(ccn4C(C)C)c3)n2)c(OC)cc1N(C)CCN(C)C"
  Class Label: "1 (yes)"
- Line Notation: "C=CC(=O)Nc1cc(Nc2ncc(F)c(-c3cnc4c(ccn4C)c3)n2)c(OC)cc1N1CCC(N(C)C)CC1"
  Class Label: "0 (no)"
- Line Notation: "C=CC(=O)Nc1cc(Nc2ncc(Cl)c(-c3cnn(C)c3C)n2)c(OC)cc1N(C)CCN(C)C"
  Class Label: "0 (no)"
- Line Notation: "C=CC(=O)Nc1cc(Nc2ncc(Cl)c(-c3cnc4c(ccn4C)c3)n2)c(OC)cc1N(C)CCN(C)C"
  Class Label: "0 (no)"
- Line Notation: "C=CC(=O)Nc1cc(Nc2ncc(Cl)c(-c3ccn(C)c3)n2)c(OC)cc1N1CCC(N(C)C)CC1"
  Class Label: "0 (no)"
- Line Notation: "C=CC(=O)Nc1cc(Nc2ncc(OC)c(-c3cnc4c(ccn4C)c3)n2)c(OC)cc1N(C)CCN(C)C"
  Class Label: "1 (yes)"
